system: Clostridioides difficile; assay: Antibacterial activity against Clostridioides difficile NR-49285 assessed as reduction in microbial growth incubated for 48 hrs by broth microdilution method; assay type: functional
measurement name: MIC (µg/mL)
Write down the numeric answer in µg/mL and omit the unit.

Answered examples (3):
molecule	test target	MIC [µg/mL]
O=C(Nc1ncc([N+](=O)[O-])s1)C1CN(c2cccc(Cl)c2)N(c2cccc(Cl)c2)C1=O (centres undefined)	Clostridioides difficile	0.5
CCc1c(Cl)c(O)c(Cl)c(O)c1C(=O)O[C@H]1[C@H](O)[C@H](OC)[C@H](OC/C2=C\C=C\C[C@H](O)/C(C)=C/[C@H](CC)[C@@H](O[C@@H]3OC(C)(C)[C@@H](OC(=O)C(C)C)[C@H](O)[C@@H]3O)/C(C)=C/C(C)=C/C[C@@H]([C@@H](C)O)OC2=O)O[C@@H]1C	Clostridioides difficile	0.06
CN[C@H](CC(C)C)C(=O)N[C@H]1C(=O)N[C@@H](CC(N)=O)C(=O)N[C@H]2C(=O)N[C@H]3C(=O)N[C@H](C(=O)N[C@H](C(=O)O)c4cc(O)cc(O)c4-c4cc3ccc4O)[C@H](O)c3ccc(c(Cl)c3)Oc3cc2cc(c3O[C@@H]2O[C@H](CO)[C@@H](O)[C@H](O)[C@H]2O[C@H]2C[C@](C)(N)[C@H](O)[C@H](C)O2)Oc2ccc(cc2Cl)[C@H]1O	Clostridioides difficile	0.5

Measured MIC, O=C(Nc1ncc([N+](=O)[O-])s1)C1CN(c2ccc(Cl)cc2)N(c2ccc(Cl)cc2)C1=O (centres undefined) : 1
